Taken from paper PMC12409580.

I'd be grateful if you could share measured solubility for these entries.
procedure text: Kinetic solubility in PBS (HPLC solubility assay)
assay conditions: PBS, aqueous buffer, kinetic from dmso stock, solubility in PBS, kinetic solubility, HPLC solubility assay
A number alone suffices; assume µM.

// solubility value for CCOC(=O)[C@H](CCC(=O)NCCCCCCNC(=O)Cc1ccc(C(C(=O)NC2CCCC2)N(C(=O)c2cc(-c3ccccc3)n(-c3ccccc3)n2)c2ccc3c(c2)CCC3)cc1)NC(=O)[C@@H](NC(=O)CNC(=O)/C=C/c1ccc(O)c(OC)c1)C(C)C (some centres unmarked) [Compound 18] : 1.01

// solubility value for CCOC(=O)[C@@H](CCC(=O)N1CCC(CN2CCN(C(=O)Cc3ccc(C(C(=O)NC4CCCC4)N(C(=O)c4cc(-c5ccccc5)n(-c5ccccc5)n4)c4ccc5c(c4)CCC5)cc3)CC2)CC1)NC(=O)[C@@H](NC(=O)CNC(=O)/C=C/c1ccc(O)c(OC)c1)C(C)C (some centres unmarked) [Compound 21] : 0.33
